The entries below come with measured pIC50 values attached.
# System: U-937
# Experiment Summary: Cytotoxicity against human U937 cells after 72 hrs by MTT assay
# Assay type: functional, cell-based
# Condition Parameters: U-937, 72 h
pIC50: −log10 of the molar value.

Some solved entries appear below for comparison.
Compound Structure	Measurement
COc1c(O)c2c(c(O)c1C(C)C)C(=O)C[C@H]1C(C)=C(C)C(=O)C[C@]21C	< 4.52
CC(C)C1=C(O)C(=O)C2=C(CC[C@H]3C(C)(C)CCC[C@]23C)C1=O	< 4.52
CCCC(=O)O[C@@H]1[C@@H](OC(C)=O)C2=C(C(=O)C(O)=C(C(C)C)C2=O)[C@@]2(C)CCCC(C)(C)[C@H]12	5.47

Value lookup for pIC50; key = CC(=O)O[C@H](C/C(C)=C/C(=O)O)[C@@]1(C)[C@H](C)CC=C2[C@@H]1CCCC2(C)C
< 4.52

Can you look up the measured pIC50 of CC(=O)O[C@H]1C2=C(C(=O)C(O)=C(C(C)C)C2=O)[C@@]2(C)CCCC(C)(C)[C@@H]2[C@@H]1OC(=O)c1ccc([N+](=O)[O-])cc1 for me?
5.85

Bench note: what pIC50 did CCO[C@@H]1C[C@H]2C(C)(C)CCC[C@]2(C)C2=C1C(=O)C(C(C)C)=C(O)C2=O show?
< 4.52

Entry CC(=O)O[C@H](C/C(C)=C/CO)[C@@]1(C)[C@H](C)CC=C2[C@@H]1CCCC2(C)C has what pIC50?
< 4.52
